Listed below: pest or weed control at 25 ppm values for each entry.
System: Mycosphaerella graminicola; anamorph: Septoria tritici; Bayer code SEPTTR
Assay: Fungicidal activity: leaf blotch of wheat, one-day protectant (1DP) and three-day curative (3DC) tests on wheat plants
Assay type: in vivo, Septoria tritici on wheat plants (variety Yuma)
Details: Zymoseptoria tritici, 72 h; 25 ppm; three-day curative; rating of % disease control vs untreated inoculated plants; read-out: SEPTTR 25 ppm 3DC

Some entries whose results are on file:
Fc1cnc(ON=Cc2ccccc2)nc1NCc1ccccc1	51 to 75%
CC(C)C=NOc1ncc(F)c(NCc2ccc(Cl)cc2)n1	0 to 25%
CC=NOc1ncc(F)c(N(C)Cc2ccc(OC)cc2)n1	0 to 25%
CN(C)/C=N/c1nc(ON=Cc2ccccc2)ncc1F	76 to 100%
CN(Cc1ccccc1)c1nc(ON=Cc2ccccc2)ncc1F	26 to 50%
CN(Cc1ccccc1)c1nc(ON=Cc2ccc(Cl)cc2)ncc1F	26 to 50%

## Input I'd like to know its pest or weed control at 25 ppm. The molecule in question is `COc1ccc(CNc2nc(ON=Cc3ccc(Cl)cc3)ncc2F)cc1`
## Output 26 to 50%

## Input Query `CN(C)/C=N/c1nc(ON=Cc2ccccc2Cl)ncc1F` next
## Output 76 to 100%

## Input Query `CN(C)c1nc(ON=Cc2ccc(Cl)cc2)ncc1F` next
## Output 0 to 25%

## Input Query `COc1ccc(C=NOc2ncc(F)c(NCc3ccc(Cl)cc3)n2)cc1` next
## Output 0 to 25%

## Input Query `CC=NOc1ncc(F)c(NCc2ccccc2)n1` next
## Output 0 to 25%

## Input Query `CN(Cc1ccc(Cl)cc1)c1nc(ON=Cc2ccc(Cl)cc2)ncc1F` next
## Output 0 to 25%

## Input Query `CC=NOc1ncc(F)c(N)n1` next
## Output 76 to 100%

## Input Query `CC=NOc1ncc(F)c(N(C)C)n1` next
## Output 0 to 25%

## Input Query `COc1ccc(CNc2nc(ON=Cc3ccccc3)ncc2F)cc1` next
## Output 51 to 75%
